- TARGET OR TEST SYSTEM: p75^NTR (Rattus norvegicus, UniProt P07174)
- Construct: expressed in transfected cells; host or cells: HEK293
- Sequence (P07174 30-425): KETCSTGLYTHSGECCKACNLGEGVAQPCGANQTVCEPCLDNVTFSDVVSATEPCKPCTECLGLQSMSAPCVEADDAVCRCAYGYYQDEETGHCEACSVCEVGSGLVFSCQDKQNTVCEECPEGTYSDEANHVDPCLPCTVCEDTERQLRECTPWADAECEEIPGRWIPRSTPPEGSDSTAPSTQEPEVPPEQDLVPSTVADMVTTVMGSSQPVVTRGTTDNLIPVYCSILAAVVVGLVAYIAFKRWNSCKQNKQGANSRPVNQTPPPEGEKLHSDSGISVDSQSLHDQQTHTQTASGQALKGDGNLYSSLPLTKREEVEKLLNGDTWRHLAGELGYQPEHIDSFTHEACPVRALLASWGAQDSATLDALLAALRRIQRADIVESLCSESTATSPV
- PROTOCOL DETAILS: [3H]-DHEA saturation binding to membranes of HEK293 cells transfected with p75NTR cDNA
- STUDY CONDITIONS: KD of [3H]-DHEA binding (Scatchard analysis), overnight incubation at 4°C, n = 3
READOUT TYPE: pKd
To interpret pKd, take it as minus log10 of a concentration measured in moles per litre.

Exam item: Request - read-out pKd | tested on p75^NTR (Rattus norvegicus, UniProt P07174) | compound C[C@]12CC[C@H](O)CC1=CC[C@@H]1[C@@H]2CC[C@]2(C)C(=O)CC[C@@H]12 [DHEA, dehydroepiandrosterone]
Marked response: 8.23

* * *

- TARGET OR TEST SYSTEM: TrkA (Rattus norvegicus)
- Sequence (P35739 33-799): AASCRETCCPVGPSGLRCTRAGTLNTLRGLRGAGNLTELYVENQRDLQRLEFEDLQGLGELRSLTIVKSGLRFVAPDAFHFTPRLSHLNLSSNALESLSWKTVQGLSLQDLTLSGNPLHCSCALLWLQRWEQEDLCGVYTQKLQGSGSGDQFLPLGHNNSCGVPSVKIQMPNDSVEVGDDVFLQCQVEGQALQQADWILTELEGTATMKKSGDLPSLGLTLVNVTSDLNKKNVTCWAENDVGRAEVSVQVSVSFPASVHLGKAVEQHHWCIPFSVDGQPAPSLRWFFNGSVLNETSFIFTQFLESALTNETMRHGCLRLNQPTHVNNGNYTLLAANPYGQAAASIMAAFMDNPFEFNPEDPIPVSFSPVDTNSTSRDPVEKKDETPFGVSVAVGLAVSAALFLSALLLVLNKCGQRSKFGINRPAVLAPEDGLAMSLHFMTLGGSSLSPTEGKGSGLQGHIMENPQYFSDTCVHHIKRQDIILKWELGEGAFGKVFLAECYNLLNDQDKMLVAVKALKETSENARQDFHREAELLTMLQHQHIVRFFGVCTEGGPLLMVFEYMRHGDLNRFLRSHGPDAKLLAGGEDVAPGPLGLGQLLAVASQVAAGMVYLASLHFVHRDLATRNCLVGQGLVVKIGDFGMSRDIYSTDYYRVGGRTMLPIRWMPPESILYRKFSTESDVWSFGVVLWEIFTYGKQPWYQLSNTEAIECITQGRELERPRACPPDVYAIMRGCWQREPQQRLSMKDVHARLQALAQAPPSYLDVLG
- PROTOCOL DETAILS: Heterologous [3H]-DHEA displacement, HEK293^TrkA cell membranes
- Type: binding
- Set-up: expressed in transfected cells; host or cells: HEK293
READOUT TYPE: IC50

Exam item: Fill in: IC50 of C[C@]12CC[C@H]3[C@@H](CCC4=CC(=O)CC[C@@]43C)[C@@H]1CC[C@@H]2O [testosterone] is ___
Marked response: 5.3 nM

* * *

- TARGET OR TEST SYSTEM: TrkA (Rattus norvegicus)
- PROTOCOL DETAILS: [3H]-DHEA saturation binding to membranes of HEK293 cells transfected with TrkA cDNA
- Set-up: expressed in transfected cells; host or cells: HEK293
- STUDY CONDITIONS: KD of [3H]-DHEA binding (Scatchard analysis), 25°C for 30 min, n = 3
READOUT TYPE: pKd
Schema: pKd number; meaning minus log10 of the concentration expressed in molar units.

Exam item: Query (compound): C[C@]12CC[C@H](O)CC1=CC[C@@H]1[C@@H]2CC[C@]2(C)C(=O)CC[C@@H]12 [DHEA, dehydroepiandrosterone] ; field requested: pKd
Marked response: 8.13

* * *

- TARGET OR TEST SYSTEM: p75^NTR (Rattus norvegicus)
- Construct: expressed in transfected cells; host or cells: HEK293
- PROTOCOL DETAILS: Heterologous [3H]-DHEA displacement, HEK293^p75NTR cell membranes
- Assay type: binding
- STUDY CONDITIONS: HEK293^p75NTR membranes, 1 nM [3H]-DHEA; read-out: IC50 of [3H]-DHEA displacement
Counter-ions that a name gives are not always drawn.
READOUT TYPE: IC50 (nM)
Report as a plain number; the unit nM is understood.

Exam item: Look up IC50: C[C@]12CC[C@H](OS(=O)(=O)O)CC1=CC[C@@H]1[C@@H]2CC[C@]2(C)C(=O)CC[C@@H]12 [DHEAS, dehydroepiandrosterone sulfate]
Marked response: 8.1

// provenance: paper PMC3082517
